# study.system: PDE III (Homo sapiens, UniProt Q14432)
# Construct: PDE III isolated from human platelets; from tissue; host or cells: human platelets
# Sequence (Q14432 whole entry): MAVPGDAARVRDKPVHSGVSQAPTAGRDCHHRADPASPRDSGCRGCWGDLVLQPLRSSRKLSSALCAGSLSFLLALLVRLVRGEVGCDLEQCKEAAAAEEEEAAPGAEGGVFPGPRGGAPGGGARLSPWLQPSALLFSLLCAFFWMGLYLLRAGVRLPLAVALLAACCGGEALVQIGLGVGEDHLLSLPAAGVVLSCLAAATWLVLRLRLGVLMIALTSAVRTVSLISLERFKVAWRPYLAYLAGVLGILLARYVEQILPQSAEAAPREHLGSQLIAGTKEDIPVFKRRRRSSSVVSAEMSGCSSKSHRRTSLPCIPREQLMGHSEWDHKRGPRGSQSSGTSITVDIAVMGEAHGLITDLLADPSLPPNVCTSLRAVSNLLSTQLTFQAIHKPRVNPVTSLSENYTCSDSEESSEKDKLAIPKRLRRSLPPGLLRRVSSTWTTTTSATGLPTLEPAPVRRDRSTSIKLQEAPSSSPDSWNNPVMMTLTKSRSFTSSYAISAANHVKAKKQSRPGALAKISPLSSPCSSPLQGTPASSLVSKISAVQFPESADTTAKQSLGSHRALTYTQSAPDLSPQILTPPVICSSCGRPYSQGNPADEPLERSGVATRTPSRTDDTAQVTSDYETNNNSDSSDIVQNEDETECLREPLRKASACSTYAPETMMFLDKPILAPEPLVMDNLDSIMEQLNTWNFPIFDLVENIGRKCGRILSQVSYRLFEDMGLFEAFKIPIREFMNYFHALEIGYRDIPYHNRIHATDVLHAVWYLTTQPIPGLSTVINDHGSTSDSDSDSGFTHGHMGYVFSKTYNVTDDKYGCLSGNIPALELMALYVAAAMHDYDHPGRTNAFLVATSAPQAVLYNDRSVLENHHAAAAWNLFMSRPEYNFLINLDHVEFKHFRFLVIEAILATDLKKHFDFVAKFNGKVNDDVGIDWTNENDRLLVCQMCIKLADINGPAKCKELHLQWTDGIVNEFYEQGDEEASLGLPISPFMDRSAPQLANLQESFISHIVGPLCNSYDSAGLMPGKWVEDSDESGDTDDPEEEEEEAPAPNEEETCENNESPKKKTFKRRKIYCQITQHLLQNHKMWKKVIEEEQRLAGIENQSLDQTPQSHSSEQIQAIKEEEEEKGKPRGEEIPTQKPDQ
# experiment.notes: inhibition of PDE III isolated from human platelets
# Format: biochemical
# assay.context: negative logarithm of IC50; cAMP 0.5 μmol/l; read-out: PDE III hum. platelets -lg[IC50 ] (converted)
Each entry below lists one item and its recorded log10(IC50) value.
Plainly stated, the numbers are log10 of IC50 given in µM.

Worked cases, log10(IC50) given:
Nc1ccc(-c2ccc(OC(F)F)c(OCC3CC3)c2)nn1 [compound 18]
2.16
CCOc1ccc(-c2ccc(N)nn2)cc1OC(F)F [compound 12]
2.50
COc1ccc(-c2ccc(N)nn2)cc1OCC1CCC1 [compound 13]
2.35

Request: Quick one: log10(IC50) of CC(C)Oc1cc(-c2ccc(N)nn2)ccc1OC(F)F [compound 15] ?
Result: 2.03

Request: Quick one: log10(IC50) of COc1ccc(-c2ccc(N)nn2)cc1OC1CCCCC1 [Serial No. 7] ?
Result: 1.78

Request: Quick one: log10(IC50) of COc1cc(-c2ccc(N)nn2)ccc1OC(F)F [compound 11] ?
Result: 2.29

Request: Quick one: log10(IC50) of Nc1ccc(-c2ccc(OC(F)F)c(OC3CCCC3)c2)n[n+]1[O-] [compound 24] ?
Result: 1.68

Request: Quick one: log10(IC50) of Nc1ccc(-c2ccc(OC(F)F)c(OC3CCCC3)c2)nn1 [compound 14] ?
Result: 1.73

Request: Quick one: log10(IC50) of CCOc1cc(-c2ccc(N)[n+]([O-])n2)ccc1OC(F)F [compound 19] ?
Result: 1.80

Request: Quick one: log10(IC50) of Nc1ccc(-c2ccc(OC(F)F)c(OCC3CC3)c2)n[n+]1[O-] [compound 26] ?
Result: 1.26

###

# System: tracheal rings
# experiment.notes: bronchospasmolytic effect on the chain of tracheal rings from guinea pigs in vitro
# Format: cell-based
# assay.context: ratio of EC50 values, theophylline vs substance
Mark 1 only for [EC50 ] theophylline/[EC50 ] substance values smaller than 40; exact matches and larger values are -1.

Request: Given the entry CCOc1cc(-c2ccc(N)[n+]([O-])n2)ccc1OC(F)F [compound 19] , would its reported [EC50 ] theophylline/[EC50 ] substance be below 40?
Result: -1

###

# Tested on: PDE IV
# experiment.notes: inhibition of PDE IV isolated from human polymorphonuclear neutrophilic cells (PMNs)
# Assay type: biochemical
# assay.context: negative logarithm of IC50; cAMP 0.5 μmol/l
measurement.label: PDE IV hum. PMNs -lg[IC50 ]
Number, no unit, nothing else.

CC(C)COc1cc(-c2ccc(N)[n+]([O-])n2)ccc1OC(F)F
7.03
Nc1ccc(-c2ccc(OC(F)F)c(OCC(F)(F)F)c2)n[n+]1[O-]
6.42
Nc1ccc(-c2ccc(OC(F)F)c(OCC3CC3)c2)n[n+]1[O-]
7.48
CC(C)Oc1cc(-c2ccc(N)[n+]([O-])n2)ccc1OC(F)F
6.26
Nc1ccc(-c2ccc(OC(F)F)c(OCC(F)(F)F)c2)nn1
6.88
CCOc1cc(-c2ccc(N)[n+]([O-])n2)ccc1OC(F)F
6.58
Nc1ccc(-c2ccc(OC(F)F)c(OCC3CC3)c2)nn1
7.47

In the following, a different molecule is considered.
Request: Quick one: PDE IV hum. PMNs -lg[IC50 ] of CCOc1ccc(-c2ccc(N)[n+]([O-])n2)cc1OC(F)F ?
Result: 5.19
